Every entry's value here was drawn from patent US20200087363A1.

peptide exchange yield listing for selected binders.
# Target entity: T1, HLA-B*44:05 (human)
# T1 construct: also called peptide-receptive MHC class I molecule
# Test name: UV peptide exchange, anti-b2m ELISA

binder=KEKVPGITI experimental_value="50 to 75%"
binder=EEAVRSVAF experimental_value="50 to 75%"
binder=SEDPEKYYL experimental_value="50 to 75%"
binder=EEVQDGKVI experimental_value="20 to 50%"
binder=HELESENKKW experimental_value="50 to 75%"

-- ask Tell me measured peptide exchange yield for `DEDGKIVGY` please.
-- reply 20 to 50%

-- ask Tell me measured peptide exchange yield for `LEIMTNLVTL` please.
-- reply > 75%

-- ask Tell me measured peptide exchange yield for `IEVSSPITL` please.
-- reply > 75%

-- ask Tell me measured peptide exchange yield for `SVNPIIYGF` please.
-- reply 20 to 50%

-- ask Tell me measured peptide exchange yield for `REEEANVVL` please.
-- reply 50 to 75%

-- ask Tell me measured peptide exchange yield for `HEHGLFNLY` please.
-- reply 50 to 75%

-- ask Tell me measured peptide exchange yield for `QEVAGYVLI` please.
-- reply 50 to 75%

-- ask Tell me measured peptide exchange yield for `EESLLSSW` please.
-- reply 50 to 75%

-- ask Tell me measured peptide exchange yield for `MEFQNTQSY` please.
-- reply 50 to 75%
